- TARGET SYSTEM: T1, asialofetuin (UniProt P12763 19-359, limits assumed, glycoprotein; desialylated glycans, described as L-fucose bearing)
- T1 construct: also called L-fucose bearing asialofetuin; model glycoprotein
- T1 sequence (looked up): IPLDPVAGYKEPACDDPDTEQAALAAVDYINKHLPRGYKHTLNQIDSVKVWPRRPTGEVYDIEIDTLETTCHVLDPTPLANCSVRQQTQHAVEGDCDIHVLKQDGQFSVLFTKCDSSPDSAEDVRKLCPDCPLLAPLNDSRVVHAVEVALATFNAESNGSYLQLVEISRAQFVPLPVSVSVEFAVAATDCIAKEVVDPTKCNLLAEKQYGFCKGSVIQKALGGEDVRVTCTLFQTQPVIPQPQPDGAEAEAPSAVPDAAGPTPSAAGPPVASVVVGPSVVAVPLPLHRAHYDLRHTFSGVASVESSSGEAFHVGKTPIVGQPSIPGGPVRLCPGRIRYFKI
- EXPERIMENT NOTES: ITC, as cited in the text from Table 1; conflicts with Table 1, which prints 6.4 × 10^4 nM for OL and 4.2 × 10^4 nM for DADLE-OL
Bridges are numbered along the chain shown (N, C = ends). Where no end group is shown, it is not given here.
OBSERVATION TYPE: Kd (µM)

• YASPKCFRYPNGVLACT (disulfide 6-16, Synthetic copy of the natural product; on-resin disulfide formation by I2 oxidation; also called unmodified OL; OL natural product) [Odorranalectin (OL)] = 42
